- System: CSF-1-induced human macrophages (PBMC-derived CD14+ monocytes)
- protocol: Survival of CSF-1-induced human macrophages from PBMC (CCK-8)
- Type: cell-based
- condition description: Homo sapiens, 168 h, read-out: IC50 inhibition of cell survival, PBMC (CSF-1)
readout type: pIC50
Hey, just a heads up that pIC50 is the negative log base 10 of the concentration in molar.

Req: Return value of pIC50 for input CNC(=O)c1cccc2cc(Oc3ccnc(NC(=O)c4ccc(N5C[C@@H](C)N[C@@H](C)C5)cc4)c3)ccc12 [Compound I] , no commentary.
Resp: 7.52

These data points were gathered from patent US20230285389A1.
